The values you see were collected from ChEMBL document CHEMBL4673214.

Listed here: items and their measured MIC.
System: Klebsiella pneumoniae
Assay: Antibacterial activity against carbapenem-resistant Klebsiella pneumoniae clinical isolate 3 assessed as reduction in bacterial growth incubated for 16 to 20 hrs by CLSI-based broth microdilution method
Format: functional
Details: time 16-20 hrs
Numbers only; they are read as µg/mL.

C[C@@H](O)[C@H]1C(=O)N2C(C(=O)O)=C(S[C@@H]3CN[C@H](C(=O)N(C)C)C3)[C@H](C)[C@H]12; 2
CCCCCCCCCCCCCC[N+](C)(C)CC(=O)NC[C@H]1CN(c2ccc(N3CCOCC3)c(F)c2)C(=O)O1.[Cl-]; 16
CCCCCCCCCCCC[N+](C)(C)CC(=O)NC[C@H]1CN(c2ccc(N3CCOCC3)c(F)c2)C(=O)O1.[Cl-]; 64

Quick check: MIC of "CCCCCCCCCCCN(C[C@H]1CN(c2ccc(N3CCOCC3)c(F)c2)C(=O)O1)C(=O)[C@@H](N)CCCCN.Cl.Cl" ? 16

Quick check: MIC of "CCCCCCCCCCCN(C[C@H]1CN(c2ccc(N3CCOCC3)c(F)c2)C(=O)O1)C(=O)[C@@H](N)CCCN=C(N)N.Cl.Cl.Cl" ? 8

---

Test system: Cell membrane
Assay: Induction of outer membrane permeabilization in Escherichia coli ATCC 25922 at 20 ug/ml measured for 12 mins by NPN dye based fluorescence assay
Conditions: dose 20.0 µg/ml
The source made the active and inactive calls. The rule behind the calls is not given here.
QUANTITY_NAME: Activity

CN[C@H](CC(C)C)C(=O)N[C@H]1C(=O)N[C@@H](CC(N)=O)C(=O)N[C@H]2C(=O)N[C@H]3C(=O)N[C@H](C(=O)N[C@H](C(=O)O)c4cc(O)cc(O)c4-c4cc3ccc4O)[C@H](O)c3ccc(c(Cl)c3)Oc3cc2cc(c3O[C@@H]2O[C@H](CO)[C@@H](O)[C@H](O)[C@H]2O[C@H]2C[C@](C)(N)[C@H](O)[C@H](C)O2)Oc2ccc(cc2Cl)[C@H]1O [VANCOMYCIN]; inactive
C[C@@H](O)[C@H]1C(=O)N2C(C(=O)O)=C(S[C@@H]3CN[C@H](C(=O)N(C)C)C3)[C@H](C)[C@H]12 [MEROPENEM]; inactive
CCCCCCCCCCCN(C[C@H]1CN(c2ccc(N3CCOCC3)c(F)c2)C(=O)O1)C(=O)[C@@H](N)CCCCN.Cl.Cl; inactive
CC(=O)NC[C@H]1CN(c2ccc(N3CCOCC3)c(F)c2)C(=O)O1 [LINEZOLID]; inactive

---

Test system: Enterobacteriaceae
Assay: Antibacterial activity against NDM1 producing carbapenem-resistant Enterobacteriaceae clinical isolate 9 assessed as reduction in bacterial growth incubated for 16 to 20 hrs by CLSI-based broth microdilution method
Assay type: functional
Conditions: time 16-20 hrs
QUANTITY_NAME: MIC (µg/mL)
Numbers only; they are read as µg/mL.

Consider the reported MIC for these molecules:
CCCCCCCCCCCN(C[C@H]1CN(c2ccc(N3CCOCC3)c(F)c2)C(=O)O1)C(=O)[C@@H](N)CCCCN.Cl.Cl; 16
CCCCCCCCCCCN(C[C@H]1CN(c2ccc(N3CCOCC3)c(F)c2)C(=O)O1)C(=O)[C@@H](N)CCCN=C(N)N.Cl.Cl.Cl; 16
CN[C@H](CC(C)C)C(=O)N[C@H]1C(=O)N[C@@H](CC(N)=O)C(=O)N[C@H]2C(=O)N[C@H]3C(=O)N[C@H](C(=O)N[C@H](C(=O)O)c4cc(O)cc(O)c4-c4cc3ccc4O)[C@H](O)c3ccc(c(Cl)c3)Oc3cc2cc(c3O[C@@H]2O[C@H](CO)[C@@H](O)[C@H](O)[C@H]2O[C@H]2C[C@](C)(N)[C@H](O)[C@H](C)O2)Oc2ccc(cc2Cl)[C@H]1O; 64
CCCCCCCCCCCC[N+](C)(C)CC(=O)NC[C@H]1CN(c2ccc(N3CCOCC3)c(F)c2)C(=O)O1.[Cl-]; 16

Provide value of MIC for this record tested with Enterobacteriaceae: "CCCCCCCCCCCCCC[N+](C)(C)CC(=O)NC[C@H]1CN(c2ccc(N3CCOCC3)c(F)c2)C(=O)O1.[Cl-]" 16
